Consider the following compounds and their measured IC50 readings.
# system: PARP-1 (Homo sapiens)
# Construct: purchased BPS Bioscience 80569
# Sequence (P09874 whole entry): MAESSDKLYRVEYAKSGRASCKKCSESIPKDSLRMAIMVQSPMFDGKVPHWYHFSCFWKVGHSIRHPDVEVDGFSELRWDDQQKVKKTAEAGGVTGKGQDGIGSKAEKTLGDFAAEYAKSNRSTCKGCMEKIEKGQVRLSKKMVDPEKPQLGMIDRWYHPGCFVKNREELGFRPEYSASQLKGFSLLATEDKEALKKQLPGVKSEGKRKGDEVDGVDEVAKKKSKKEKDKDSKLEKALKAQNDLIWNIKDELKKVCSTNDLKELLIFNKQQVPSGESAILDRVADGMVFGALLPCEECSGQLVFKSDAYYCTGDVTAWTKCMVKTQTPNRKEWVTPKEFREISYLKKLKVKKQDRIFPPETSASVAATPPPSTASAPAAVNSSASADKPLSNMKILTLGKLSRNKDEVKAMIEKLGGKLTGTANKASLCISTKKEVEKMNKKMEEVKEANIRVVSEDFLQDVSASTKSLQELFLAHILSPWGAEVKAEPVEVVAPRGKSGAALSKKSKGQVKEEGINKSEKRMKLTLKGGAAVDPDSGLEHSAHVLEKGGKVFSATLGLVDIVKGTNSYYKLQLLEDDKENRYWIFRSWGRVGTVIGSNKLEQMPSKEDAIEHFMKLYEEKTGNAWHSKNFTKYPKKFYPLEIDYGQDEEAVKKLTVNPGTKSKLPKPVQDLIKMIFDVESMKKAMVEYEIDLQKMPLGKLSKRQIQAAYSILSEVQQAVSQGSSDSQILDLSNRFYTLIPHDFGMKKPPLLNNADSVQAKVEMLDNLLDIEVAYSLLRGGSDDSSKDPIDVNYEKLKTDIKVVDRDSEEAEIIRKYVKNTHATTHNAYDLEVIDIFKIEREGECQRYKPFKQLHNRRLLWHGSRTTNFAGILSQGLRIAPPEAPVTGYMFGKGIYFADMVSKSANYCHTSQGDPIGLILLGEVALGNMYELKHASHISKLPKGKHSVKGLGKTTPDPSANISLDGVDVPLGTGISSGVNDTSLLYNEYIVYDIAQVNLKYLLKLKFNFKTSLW
# protocol notes: PARP-1 inhibition assay (PARP-1 Chemiluminescent Assay Kit, BPS Bioscience)
# Type: biochemical
# condition details: supplement sheet; read-out: IC50 PAPR-1
# Procedure: The PARP-1 and PARP-2 inhibition assays were performed in outsourcing, by a CRO company, Shanghai Medicilon Inc. (Shanghai, China). […] Briefly, PARP-1 or PARP-2 biotinylated substrate was incubated with compounds or solvent control at varying concentrations and an assay buffer containing the PARP-1 or PARP-2 enzyme.
Record the value in nM, omitting the unit from your answer.

{"compound": "NC(=O)c1cccc2[nH]c(C3CCN(CCC(=O)c4ccccc4)C3)nc12 (centres unmarked)", "measured number": 3.64}
{"compound": "NC(=O)c1cccc2[nH]c(C3CCN(CCC(=O)c4ccc(Cl)cc4)C3)nc12 (centres unmarked)", "measured number": 3.89}
{"compound": "COc1ccc(C(=O)CCN2CCC(c3nc4c(C(N)=O)cccc4[nH]3)C2)cc1 (centres unmarked)", "measured number": 5.86}

Please look up its IC50: NC(=O)c1cccc2[nH]c(C3CCN(CCCNc4ccccc4)C3)nc12 (centres unmarked)
7.14

Please look up its IC50: NC(=O)c1cccc2[nH]c(C3CCN(CCCC(=O)c4ccccc4)C3)nc12 (centres unmarked)
12.2
